- System under test: Disintegrin and metalloproteinase domain-containing protein 17 (Homo sapiens) (UniProt P78536)
- Sequence (P78536 215-824 limits assumed): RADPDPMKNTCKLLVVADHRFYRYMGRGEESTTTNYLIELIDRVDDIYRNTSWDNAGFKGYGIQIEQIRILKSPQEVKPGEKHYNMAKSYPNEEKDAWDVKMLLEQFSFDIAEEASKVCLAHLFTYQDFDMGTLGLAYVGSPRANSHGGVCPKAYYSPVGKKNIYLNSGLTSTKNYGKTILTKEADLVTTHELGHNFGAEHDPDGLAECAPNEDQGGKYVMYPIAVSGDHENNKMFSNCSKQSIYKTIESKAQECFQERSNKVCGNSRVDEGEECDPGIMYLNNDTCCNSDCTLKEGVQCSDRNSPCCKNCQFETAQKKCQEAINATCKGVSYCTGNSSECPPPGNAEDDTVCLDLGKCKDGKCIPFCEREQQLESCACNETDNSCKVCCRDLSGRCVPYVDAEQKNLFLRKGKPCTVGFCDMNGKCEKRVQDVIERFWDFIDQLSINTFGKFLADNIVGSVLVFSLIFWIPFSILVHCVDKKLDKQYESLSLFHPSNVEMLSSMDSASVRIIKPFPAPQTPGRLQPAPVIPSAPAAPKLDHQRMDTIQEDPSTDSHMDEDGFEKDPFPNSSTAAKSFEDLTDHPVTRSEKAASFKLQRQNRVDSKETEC
- Protocol text: ADAM17 inhibitor potency, late-stage follow-up, ADAM17 exosite inhibitor project, biochemical, QFRET peptide cleavage, IC50 (AID 743337)
- Condition description: recombinant ADAM17, QFRET peptide cleavage, fluorescence 3 h
Calls of active or inactive are those of the source.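 How the source made its calls: active means IC50 of 10 µM or lower; inactive means IC50 above 10 µM.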
The reply should be one of these categories: y = active, n = inactive

Per the records of this test, what outcome belongs to Oc1cc2c(cc1C(c1ccc(Cl)c(Cl)c1)N1CCCC1)OCO2 (stereo not given) ?
n

Per the records of this test, what outcome belongs to C=C(C)COc1ccc(-c2[nH]ncc2Oc2cccc(OC)c2)c(O)c1 ?
n

Per the records of this test, what outcome belongs to O=C(Nc1ccc(OCC(F)(F)C(F)(F)F)c(C(F)(F)F)c1)c1ccc(F)cc1 ?
n

Next:
Per the records of this test, what outcome belongs to CCOc1ccc(NC(=O)CC2SC(=O)N(c3ccccc3)C2=O)cc1 (stereo not given) ?
y

Per the records of this test, what outcome belongs to CS(=O)(=O)N(CC(=O)Nc1ccccc1Sc1ccccc1)c1cccc(Br)c1 ?
n

Per the records of this test, what outcome belongs to O=C(CN(Cc1cccs1)S(=O)(=O)c1ccc(S(=O)(=O)NC2CCCCC2)cc1)Nc1ccccc1 ?
n

Per the records of this test, what outcome belongs to O=C(Nc1ccc(OCC(F)(F)C(F)(F)F)c(C(F)(F)F)c1)c1ccc(Br)cc1 ?
n

Per the records of this test, what outcome belongs to C=C(C)COc1ccc(-c2n[nH]c(C)c2Oc2ccccc2OC)c(O)c1 ?
n

Per the records of this test, what outcome belongs to CCCOC(=O)c1ccc(Oc2cn[nH]c2-c2ccc(OCC)cc2O)cc1 ?
n

Per the records of this test, what outcome belongs to O=C(O)CCC(=O)c1c[nH]c2ccccc12 ?
n

These measurements were taken from PubChem BioAssay AID743337.
